Square brackets hold non-standard residues; d marks the D form. Peptide text beside a SMILES is read from it. Ala(indol-4-yl) = N[C@@H](Cc1cccc2[nH]ccc12)C(=O)O; NMeR = CN[C@@H](CCCNC(=N)N)C(=O)O; Tle = CC(C)(C)[C@H](N)C(=O)O
Recorded Kd values (UniProt P28223) are given below.
Sequence (P28223 whole entry): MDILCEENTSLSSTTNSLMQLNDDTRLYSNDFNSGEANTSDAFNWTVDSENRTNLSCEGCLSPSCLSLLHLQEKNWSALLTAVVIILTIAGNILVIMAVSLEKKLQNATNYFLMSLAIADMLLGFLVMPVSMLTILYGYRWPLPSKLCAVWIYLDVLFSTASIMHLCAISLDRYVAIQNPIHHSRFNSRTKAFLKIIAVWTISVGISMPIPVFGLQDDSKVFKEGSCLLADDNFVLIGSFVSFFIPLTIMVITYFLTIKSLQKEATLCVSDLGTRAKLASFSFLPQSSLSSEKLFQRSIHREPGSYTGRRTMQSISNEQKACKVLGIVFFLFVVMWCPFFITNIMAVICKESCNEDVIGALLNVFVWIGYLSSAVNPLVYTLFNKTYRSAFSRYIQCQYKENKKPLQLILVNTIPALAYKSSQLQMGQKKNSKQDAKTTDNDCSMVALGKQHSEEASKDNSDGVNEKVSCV
Numeric only. Scale: µM

Look over these answered cases.
| Molecule | Value observed |
| --- | --- |
| CN[C@@H](CCCNC(=N)N)C(=O)N[C@@H](CCCCN)C(=O)N1CCC[C@H]1C(=O)N[C@@H](Cc1cccc2[nH]ccc12)C(=O)N[C@H](C(=O)N[C@@H](CC(C)C)C(=O)O)C(C)(C)C [NT69L] (H-[NMeR]KP[Ala(indol-4-yl)][Tle]L-OH; N-terminus and C-terminus assumed) | 34.6 |
| CC[C@H](C)[C@H](NC(=O)[C@H](Cc1cccc2[nH]ccc12)NC(=O)[C@@H]1CCCN1C(=O)[C@H](CCCNC(=N)N)NC(=O)[C@@H](N)CCCNC(=N)N)C(=O)N[C@@H](CC(C)C)C(=O)O [NT64L] | 6.6 |

Please turn your attention to the following entry.
I'm curious: which Kd was measured for CC(C)C[C@H](NC(=O)[C@@H](NC(=O)[C@H](Cc1cccc2[nH]ccc12)NC(=O)[C@@H]1CCCN1C(=O)[C@H](CCCNC(=N)N)NC(=O)[C@H](N)CCCCN)C(C)(C)C)C(=O)O [NT66L] (H-[dK]RP[Ala(indol-4-yl)][Tle]L-OH; N-terminus and C-terminus assumed) tested on UniProt P28223?
8.7

---

Target: rat NTR1 (Rattus norvegicus, UniProt P20789)
Construct: expressed in transfected cells; host or cells: CHO-K1
Sequence (P20789 whole entry): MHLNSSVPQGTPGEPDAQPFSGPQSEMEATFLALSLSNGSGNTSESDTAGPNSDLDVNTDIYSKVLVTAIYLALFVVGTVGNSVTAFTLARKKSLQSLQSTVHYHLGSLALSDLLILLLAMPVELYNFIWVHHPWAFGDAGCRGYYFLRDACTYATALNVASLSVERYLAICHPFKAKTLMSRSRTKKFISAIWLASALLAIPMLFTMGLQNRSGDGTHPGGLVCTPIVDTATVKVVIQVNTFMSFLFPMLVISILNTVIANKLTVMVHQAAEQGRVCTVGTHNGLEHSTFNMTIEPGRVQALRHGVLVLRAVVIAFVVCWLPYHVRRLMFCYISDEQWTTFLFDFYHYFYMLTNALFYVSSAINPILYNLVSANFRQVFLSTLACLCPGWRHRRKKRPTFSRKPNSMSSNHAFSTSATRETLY
Test: Competition binding with [3H]NT, membranes of CHO-K1 cells transfected with rat NTR1
Details: CHO cells; read-out: Kd rNTR (Table VII)
pKd: −log10 of the molar value.
Assay metric: pKd

For the compound NCCc1c[nH]c2ccc(O)cc12 [Serotonin, reference compound] , what pKd is on record?
< 4.00

---

Below, each entry is listed with its recorded EC50.
Target: human NTR1 (Homo sapiens)
Experiment: PI turnover ([3H]IP1) in intact CHO-K1 cells, human NTR1
Square brackets hold non-standard residues; d marks the D form. Peptide text beside a SMILES is read from it. Ala(indol-4-yl) = N[C@@H](Cc1cccc2[nH]ccc12)C(=O)O; NMeR = CN[C@@H](CCCNC(=N)N)C(=O)O; Tle = CC(C)(C)[C@H](N)C(=O)O
Quote the value and follow it with the unit of measurement.

Look over these answered cases.
| Compound | Value observed |
| --- | --- |
| CN[C@@H](CCCNC(=N)N)C(=O)N[C@@H](CCCCN)C(=O)N1CCC[C@H]1C(=O)N[C@@H](Cc1cccc2[nH]ccc12)C(=O)N[C@H](C(=O)N[C@@H](CC(C)C)C(=O)O)C(C)(C)C [NT69L] (H-[NMeR]KP[Ala(indol-4-yl)][Tle]L-OH; N-terminus and C-terminus assumed) | 2.3 nM |
| CN[C@@H](CCCNC(=N)N)C(=O)N[C@@H](CCCCN)C(=O)N1CCC[C@H]1C(=O)N[C@@H](Cc1c[nH]c2ccccc12)C(=O)N[C@H](C(=O)N[C@@H](CC(C)C)C(=O)O)C(C)(C)C [Eisai, reference compound] (H-[NMeR]KPW[Tle]L-OH; N-terminus and C-terminus assumed) | 300 nM |
| CC(C)C[C@H](NC(=O)[C@@H](NC(=O)[C@H](Cc1cccc2[nH]ccc12)NC(=O)[C@@H]1CCCN1C(=O)[C@H](CCCNC(=N)N)NC(=O)[C@H](N)CCCCN)C(C)(C)C)C(=O)O [NT66L] (H-[dK]RP[Ala(indol-4-yl)][Tle]L-OH; N-terminus and C-terminus assumed) | 10 nM |

Please turn your attention to the following entry.
For the compound CC[C@H](C)[C@H](NC(=O)[C@H](Cc1cccc2[nH]ccc12)NC(=O)[C@@H]1CCCN1C(=O)[C@H](CCCNC(=N)N)NC(=O)[C@H](N)CCCCN)C(=O)N[C@@H](CC(C)C)C(=O)O [NT67L] (H-[dK]RP[Ala(indol-4-yl)]IL-OH; N-terminus and C-terminus assumed) , what EC50 is on record?
0.83 nM

---

Biological target: rat NTR1 (Rattus norvegicus)
Construct: expressed in transfected cells; host or cells: CHO-K1
Test: Competition binding with [3H]NT, membranes of CHO-K1 cells transfected with rat NTR1
Numbered stars: 1 amine (or outer) side, 2 acyl side, 3 side chain; on linkers, the order of the positions; unused ones are H or OH. Square brackets hold non-standard residues; d marks the D form. Peptide text beside a SMILES is read from it. X1 = O=C([C@@H](Cc1cccc2[nH]ccc12)N[*:1])[*:2]; Tle = CC(C)(C)[C@H](N)C(=O)O
Assay metric: Kd (nM)
Numeric only. Scale: nM

I'm curious: which Kd was measured for CC(C)C[C@H](NC(=O)[C@@H](NC(=O)[C@@H](Cc1cccc2[nH]ccc12)NC(=O)[C@@H]1CCCN1C(=O)[C@H](CCCNC(=N)N)NC(=O)[C@H](N)CCCCN)C(C)(C)C)C(=O)O [NT66D] (H-[dK]RP[X1][Tle]L-OH; N-terminus and C-terminus assumed) tested on rat NTR1 (Rattus norvegicus)?
77

---

Below, each entry is listed with its recorded pKd.
Target: human NTR1 (Homo sapiens, UniProt P30989)
Construct: expressed in transfected cells; host or cells: CHO-K1
Experiment: Competition binding with [3H]NT, membranes of CHO-K1 cells transfected with human NTR1
Numbered stars: 1 amine (or outer) side, 2 acyl side, 3 side chain; on linkers, the order of the positions; unused ones are H or OH. Square brackets hold non-standard residues; d marks the D form. Peptide text beside a SMILES is read from it. Ala(indol-4-yl) = N[C@@H](Cc1cccc2[nH]ccc12)C(=O)O; X1 = O=C([C@@H](Cc1cccc2[nH]ccc12)N[*:1])[*:2]; NMeR = CN[C@@H](CCCNC(=N)N)C(=O)O; Tle = CC(C)(C)[C@H](N)C(=O)O
As a rule, pKd stands for the negative log10 of the concentration, concentration in M.

| Compound | Test system | pKd |
| --- | --- | --- |
| CC[C@H](C)[C@H](NC(=O)[C@H](Cc1cccc2[nH]ccc12)NC(=O)[C@@H]1CCCN1C(=O)[C@H](CCCNC(=N)N)NC(=O)[C@H](N)CCCCN)C(=O)N[C@@H](CC(C)C)C(=O)O [NT67L] (H-[dK]RP[Ala(indol-4-yl)]IL-OH; N-terminus and C-terminus assumed) | human NTR1 (Homo sapiens, UniProt P30989) | 9.21 |
| CC(C)C[C@H](NC(=O)[C@@H](NC(=O)[C@H](Cc1cccc2[nH]ccc12)NC(=O)[C@@H]1CCCN1C(=O)[C@H](CCCNC(=N)N)NC(=O)[C@H](N)CCCCN)C(C)(C)C)C(=O)O [NT66L] (H-[dK]RP[Ala(indol-4-yl)][Tle]L-OH; N-terminus and C-terminus assumed) | human NTR1 (Homo sapiens, UniProt P30989) | 8.43 |
| CC(C)C[C@H](NC(=O)[C@@H](NC(=O)[C@H](Cc1cccc2[nH]ccc12)NC(=O)[C@@H]1CCCN1C(=O)[C@H](N)CCCCN)C(C)(C)C)C(=O)O [NT72] (H-[dK]P[Ala(indol-4-yl)][Tle]L-OH; N-terminus and C-terminus assumed) | human NTR1 (Homo sapiens, UniProt P30989) | 6.19 |

I'm curious: which pKd was measured for CN[C@@H](CCCNC(=N)N)C(=O)N[C@@H](CCCCN)C(=O)N1CCC[C@H]1C(=O)N[C@@H](Cc1cccc2[nH]ccc12)C(=O)N[C@H](C(=O)N[C@@H](CC(C)C)C(=O)O)C(C)(C)C [NT69L] (H-[NMeR]KP[Ala(indol-4-yl)][Tle]L-OH; N-terminus and C-terminus assumed) tested on human NTR1 (Homo sapiens, UniProt P30989)?
8.81

I'm curious: which pKd was measured for CC[C@H](C)[C@H](NC(=O)[C@H](Cc1cccc2[nH]ccc12)NC(=O)[C@@H]1CCCN1C(=O)[C@H](N)CCCCN)C(=O)N[C@@H](CC(C)C)C(=O)O [NT73] (H-[dK]P[Ala(indol-4-yl)]IL-OH; N-terminus and C-terminus assumed) tested on human NTR1 (Homo sapiens, UniProt P30989)?
7.35

I'm curious: which pKd was measured for CC(C)C[C@H](NC(=O)[C@@H](NC(=O)[C@@H](Cc1cccc2[nH]ccc12)NC(=O)[C@@H]1CCCN1C(=O)[C@H](CCCNC(=N)N)NC(=O)[C@H](N)CCCCN)C(C)(C)C)C(=O)O [NT66D] (H-[dK]RP[X1][Tle]L-OH; N-terminus and C-terminus assumed) tested on human NTR1 (Homo sapiens, UniProt P30989)?
6.68
